A compilation of published Ki results with UniProt:P17252.
API: label(entry) gives yes if the entry's Ki is strictly smaller than 0.05 µM; on equality or larger values it gives no.

[[record]]
compound = "CC(C)[C@@](C)(O)[C@@H]1CN(c2nc(-c3n[nH]c4ncccc34)c(F)cc2C#N)CCN1"
class = "no"

[[record]]
compound = "CC(=O)O[C@@H]1CC(=O)O[C@H]1CO"
class = "no"

[[record]]
compound = "CCCCCCCCC(=O)OCCC1(CO)C/C(=C\\CC(C(C)C)C(C)C)C(=O)O1 (stereo not given)"
class = "no"

[[record]]
compound = "CCCCCCCCCCCCC/C=C1/CC(CO)(COC(C)=O)OC1=O (stereo not given)"
class = "yes"

[[record]]
compound = "CCCCCCCCC/C=C1/CC(CO)(COC(=O)CC(C(C)C)C(C)C)OC1=O (stereo not given)"
class = "yes"

[[record]]
compound = "CCC/C=C1/CC(CO)(COC(=O)CC(C(C)C)C(C)C)OC1=O (stereo not given)"
class = "yes"

[[record]]
compound = "CCCCCCOC(=O)/C=C/[C@]1(CO)C/C(=C/CC(C(C)C)C(C)C)C(=O)O1"
class = "yes"

[[record]]
compound = "CCCCCCCC(=O)OCCCC1(CO)CC(=CCC(C(C)C)C(C)C)C(=O)O1 (stereo not given)"
class = "no"

[[record]]
compound = "CCCCCC(=O)OCC1(CO)C/C(=C/C=C(C(C)C)C(C)C)C(=O)O1 (stereo not given)"
class = "yes"

[[record]]
compound = "CC(C)C[C@H]1CN(c2cccc(C(=O)c3cccnc3N)n2)CCN1"
class = "no"

[[record]]
compound = "CC(C)CC(C/C=C1\\CC(CO)(CN(O)C(=O)C(C)(C)C)OC1=O)CC(C)C (stereo not given)"
class = "no"

[[record]]
compound = "CCCC(=O)OCC1(CO)C/C(=C/C=C(C(C)C)C(C)C)C(=O)O1 (stereo not given)"
class = "no"

[[record]]
compound = "CC(C)[C@H]1C(=O)N[C@H](CO)Cc2coc3cccc(c23)N1C"
class = "yes"

[[record]]
compound = "Cc1cc(C(=O)c2cccnc2N)nc(N2CCN[C@@H](CC(C)C)C2)c1"
class = "no"

[[record]]
compound = "COC(=O)CCCCCCCCCCCCCCCOc1ccc(C#Cc2ccc(C#Cc3ccc(C(=O)OCC4(CO)CC(=C(C)C)C(=O)O4)cc3)cc2)cc1 (stereo not given)"
class = "no"

[[record]]
compound = "CC(C)=C1CC(CO)(COC(=O)c2ccc(C#Cc3ccc(C#Cc4ccc(OCCOCCOCCOC(=O)N(CC(=O)OC(C)(C)C)CC(=O)OC(C)(C)C)cc4)cc3)cc2)OC1=O (stereo not given)"
class = "yes"

[[record]]
compound = "CC(=O)OCC1(CO)C/C(=C\\CC(C(C)C)C(C)C)C(=O)O1 (stereo not given)"
class = "no"

[[record]]
compound = "O=C1N=C(NCc2cccs2)S/C1=C/c1ccc2ncccc2c1"
class = "no"

[[record]]
compound = "CCCCCCCCCCC[C@@H]1C(=O)O[C@H]2[C@@H]1C(=O)O[C@@H]2CO"
class = "no"

[[record]]
compound = "CCCCCCCCCOC(=O)CC1(CO)C/C(=C/CC(C(C)C)C(C)C)C(=O)O1 (stereo not given)"
class = "no"

[[record]]
compound = "CCCCCCCCCCOc1cccc2c1C(=O)O[C@]2(CO)COC(C)=O"
class = "no"

[[record]]
compound = "CCCCC/C=C1/CC(CO)(COC(=O)CC(C(C)C)C(C)C)OC1=O (stereo not given)"
class = "yes"

[[record]]
compound = "Nc1ncccc1C(=O)c1cccc(N2CCCNCC2)n1"
class = "no"

[[record]]
compound = "CC(=O)OCC1(CO)C/C(=C\\C=C(C(C)C)C(C)C)C(=O)O1 (stereo not given)"
class = "no"

[[record]]
compound = "CCCCCCCCC/C=C1\\CC(CO)(COC(=O)CC(C(C)C)C(C)C)OC1=O (stereo not given)"
class = "yes"

[[record]]
compound = "C#Cc1ccc(C#Cc2ccc(C#Cc3ccc(C(=O)OCC4(CO)CC(=C(C)C)C(=O)O4)cc3)cc2)cc1 (stereo not given)"
class = "yes"

[[record]]
compound = "CCCCCCCCCCCCOc1cccc2c1C(=O)O[C@@]2(CO)COC(C)=O"
class = "no"

[[record]]
compound = "CCCCCCCCCOC(=O)CC1(CO)C/C(=C\\CC(C(C)C)C(C)C)C(=O)O1 (stereo not given)"
class = "no"

[[record]]
compound = "CCCCCCCCCCCCCC(=O)O[C@H]1CC(=O)O[C@H]1CO"
class = "no"

[[record]]
compound = "c1cc(-c2n[nH]c3ncccc23)nc(N2CCNCC2)c1"
class = "no"

[[record]]
compound = "CCCCCCCC/C=C\\CCCCCCC/C=C1/C[C@](/C=C/C(=O)OC)(CO)OC1=O"
class = "yes"

[[record]]
compound = "CCCCCC(=O)OCC1(CO)C/C(=C/CC(C(C)C)C(C)C)C(=O)O1 (stereo not given)"
class = "yes"

[[record]]
compound = "CC(=O)OCC1(CO)C/C(=C/C=C(C(C)C)C(C)C)C(=O)O1 (stereo not given)"
class = "no"

[[record]]
compound = "CCCc1ccc(N2CCN[C@@H](CC(C)C)C2)nc1C(=O)c1cccnc1N"
class = "no"

[[record]]
compound = "C=CCc1c(C)nc2sc3c(N)ncnc3c2c1C"
class = "no"

[[record]]
compound = "CC(=O)OC[C@@]1(CO)OC(=O)c2c(OCc3ccccc3)cccc21"
class = "no"

[[record]]
compound = "CC(C)C[C@H]1CN(c2ccc(Cc3ccccc3)c(C(=O)c3cccnc3N)n2)CCN1"
class = "no"

[[record]]
compound = "CC(C)[C@@](C)(O)[C@@H]1CN(c2ccc(F)c(-c3n[nH]c4ncccc34)n2)CCN1"
class = "no"


###

A compilation of published pKi results with UniProt P17252.
pKi: −log10 of the molar value.
Given measured pKi, output 1 if it is greater than or equal to 5 and -1 if not.

[[record]]
molecule = "CC(C)C[C@H]1CN(c2ccc(C3CC3)c(C(=O)c3cccnc3N)n2)CCN1"
class = 1

[[record]]
molecule = "CCCC(=O)OCC1(CO)C/C(=C/CC(C(C)C)C(C)C)C(=O)O1 (configuration not stated)"
class = 1

[[record]]
molecule = "CC(C)[C@@](C)(O)[C@@H]1CN(c2nc(-c3n[nH]c4ncccc34)c(F)cc2O)CCN1"
class = 1

[[record]]
molecule = "CCCCCCCCCCCCC/C=C1\\CC(CO)(COCC)OC1=O (configuration not stated)"
class = 1

[[record]]
molecule = "CCCCCCCCCCC[C@H]1C(=O)O[C@@]2(CO)COC(=O)[C@@H]12"
class = -1


###

A compilation of published pKi results with Protein kinase C alpha type (Homo sapiens).
pKi: −log10 of the molar value.
Experimental Readout: pKi

[[record]]
compound = "CCCCCCCCCCCCCC(=O)O[C@H]1CC(=O)O[C@@H]1CO"
experimental_readout = "pKi"
quantitative_readout = 5.28

[[record]]
compound = "CCCCCCCCCCCCOc1cccc2c1C(=O)O[C@]2(CO)COC(C)=O"
experimental_readout = "pKi"
quantitative_readout = 6.27

[[record]]
compound = "COC(=O)COc1ccc(C#Cc2ccc(C#Cc3ccc(C#Cc4ccc(C(=O)OCC5(CO)CC(=C(C)C)C(=O)O5)cc4)cc3)cc2)cc1 (centres undefined)"
experimental_readout = "pKi"
quantitative_readout = 6.90

[[record]]
compound = "CC(C)=C1CC(CO)(COC(=O)c2ccc(C#Cc3ccc(C#Cc4ccc(OCCOCCOCCOC(=O)N(CC(=O)O)CC(=O)O)cc4)cc3)cc2)OC1=O (centres undefined)"
experimental_readout = "pKi"
quantitative_readout = 5.86


###

A compilation of published pKi results with Protein kinase C alpha type (Homo sapiens).
pKi: −log10 of the molar value.
Experimental Readout: pKi

[[record]]
compound = "CCCCCCCCCCCCCC(=O)O[C@@H]1CC(=O)O[C@@H]1CO"
bound_operator = "="
quantitative_readout = 3.52

[[record]]
compound = "CC1=CC[C@H](C)C(C)(C)[C@@H]1/C=C/C(C)=C\\CC[C@@]1(CO)[C@H](CCCO)/C(=C(/C)C=O)CC[C@]1(C)O"
bound_operator = "="
quantitative_readout = 7.12

[[record]]
compound = "CCCCCC(=O)OCC1(CO)C/C(=C\\CC(C(C)C)C(C)C)C(=O)O1 (centres undefined)"
bound_operator = "="
quantitative_readout = 7.96

[[record]]
compound = "CCCCCCCCCCCCCC[C@H]1C(=O)O[C@@H](CO)[C@@H]1OC(C)=O"
bound_operator = "="
quantitative_readout = 6.30

[[record]]
compound = "CCCCC/C=C1\\CC(CO)(COC(=O)CC(C(C)C)C(C)C)OC1=O (centres undefined)"
bound_operator = "="
quantitative_readout = 8.26

[[record]]
compound = "CC(C)=C1CC(CO)(COC(=O)c2ccc(C#Cc3ccc(C#Cc4ccc(OCCOCCOCCN(CC(=O)OC(C)(C)C)CC(=O)OC(C)(C)C)cc4)cc3)cc2)OC1=O (centres undefined)"
bound_operator = "="
quantitative_readout = 6.95

[[record]]
compound = "CCCCCCCC(=O)OC[C@]1(CO)C/C(=C\\CC(C(C)C)C(C)C)C(=O)O1"
bound_operator = "="
quantitative_readout = 8.23

[[record]]
compound = "O=C1N=C(NCc2cccs2)S/C1=C\\c1ccc2ncccc2c1"
bound_operator = "<"
quantitative_readout = 5.70

[[record]]
compound = "CCCCCCCCCCCCC1C(=O)O[C@@H](CO)[C@@]12CCC(=O)O2 (some centres undefined)"
bound_operator = "="
quantitative_readout = 4.12

